- tgt: NS3/NS4A-2 (Hepatitis C virus genotype 1a, UniProt P27958)
- Construct: Recombinant E. coli or Baculovirus full-length NS3 was diluted to 3.33 μM with assay buffer
- Sequence (P27958 1027-1657): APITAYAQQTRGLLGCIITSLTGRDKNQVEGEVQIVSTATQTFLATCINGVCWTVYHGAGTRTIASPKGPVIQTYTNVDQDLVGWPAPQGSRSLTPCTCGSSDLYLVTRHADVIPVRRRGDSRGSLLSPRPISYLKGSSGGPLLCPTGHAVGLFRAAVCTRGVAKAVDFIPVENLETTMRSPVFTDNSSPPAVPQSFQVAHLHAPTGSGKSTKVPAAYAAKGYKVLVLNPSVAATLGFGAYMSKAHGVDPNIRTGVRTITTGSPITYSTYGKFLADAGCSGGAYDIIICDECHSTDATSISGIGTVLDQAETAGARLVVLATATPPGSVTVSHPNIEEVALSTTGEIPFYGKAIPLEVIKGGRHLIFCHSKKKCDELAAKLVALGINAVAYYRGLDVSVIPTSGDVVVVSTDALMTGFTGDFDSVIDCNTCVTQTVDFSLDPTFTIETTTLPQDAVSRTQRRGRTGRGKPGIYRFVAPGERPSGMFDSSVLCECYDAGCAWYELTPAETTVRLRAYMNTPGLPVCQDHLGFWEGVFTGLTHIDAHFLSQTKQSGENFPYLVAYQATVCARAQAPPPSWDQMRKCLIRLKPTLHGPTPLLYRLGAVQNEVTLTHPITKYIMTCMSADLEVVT
- run.description: NS3 inhibition assay (NS3-NS4 protease assay)
- run.parameters: recombinant full-length NS3 (E. coli or Baculovirus) complexed with NS4A-2; RETS1 substrate
Counter-ions that a name gives are not always drawn.
assay.endpoint: IC50

| compound | tgt | measurement |
| --- | --- | --- |
| C=C[C@@H]1C[C@]1(NC(=O)C1CN(C(=O)OC(C)(C)C)Cc2c[nH]nc21)C(=O)NS(=O)(=O)C1CC1 (mixture of isomers) | NS3/NS4A-2 (Hepatitis C virus genotype 1a, UniProt P27958) | 10 to 50 µM |
| C=C[C@@H]1C[C@]1(NC(=O)C1CN(C(=O)Cc2ccccc2)Cc2c[nH]nc21)C(=O)NS(=O)(=O)C1CC1 (stereo partly shown) | NS3/NS4A-2 (Hepatitis C virus genotype 1a, UniProt P27958) | 1 to 10 µM |
| O=C(O)C1CNCc2c[nH]nc21 (stereo not shown) | NS3/NS4A-2 (Hepatitis C virus genotype 1a, UniProt P27958) | 1 to 10 µM |
| C=C[C@@H]1C[C@]1(NC(=O)[C@@H]1C[C@@H](OC(=O)N2Cc3cccc(F)c3C2)CN1C(C)=O)C(=O)NS(=O)(=O)C1CC1 | NS3/NS4A-2 (Hepatitis C virus genotype 1a, UniProt P27958) | < 0.1 µM |
| O=C(O)CNC(=O)C1CN(C(=O)Cc2ccccc2)Cc2c[nH]nc21 (stereo not shown) | NS3/NS4A-2 (Hepatitis C virus genotype 1a, UniProt P27958) | 1 to 10 µM |
| CCC[C@H](NC(=O)C1CN(C(=O)Cc2ccccc2)Cc2c[nH]nc21)C(=O)NS(=O)(=O)C1CC1 (stereo partly shown) | NS3/NS4A-2 (Hepatitis C virus genotype 1a, UniProt P27958) | 10 to 50 µM |
| C=C[C@@H]1C[C@]1(NC(=O)[C@@H]1C[C@@H](OC(=O)N2Cc3cccc(F)c3C2)CN1C(=O)CNC(=O)OC(C)(C)C)C(=O)NS(=O)(=O)C1CC1 | NS3/NS4A-2 (Hepatitis C virus genotype 1a, UniProt P27958) | 0.1 to 1 µM |
| O=C(CNC(=O)C1CCCc2c[nH]nc21)NS(=O)(=O)C1CC1 (stereo not shown) | NS3/NS4A-2 (Hepatitis C virus genotype 1a, UniProt P27958) | 1 to 10 µM |
| O=C(O)CNC(=O)C1CCCc2c[nH]nc21 (stereo not shown) | NS3/NS4A-2 (Hepatitis C virus genotype 1a, UniProt P27958) | 10 to 50 µM |
| O=C(NC1(C(=O)NS(=O)(=O)C2CC2)CCC1)C1CNCc2c[nH]nc21 (stereo not shown) | NS3/NS4A-2 (Hepatitis C virus genotype 1a, UniProt P27958) | 1 to 10 µM |
| O=C(CNC(=O)C1CNCc2c[nH]nc21)NS(=O)(=O)C1CC1 (stereo not shown) | NS3/NS4A-2 (Hepatitis C virus genotype 1a, UniProt P27958) | 10 to 50 µM |
| C=C[C@@H]1C[C@]1(NC(=O)C1CNCc2c[nH]nc21)C(=O)NS(=O)(=O)C1CC1 (stereo partly shown) [Compound 111, hydrochloride] | NS3/NS4A-2 (Hepatitis C virus genotype 1a, UniProt P27958) | 10 to 50 µM |
| CCC[C@H](NC(=O)C1CNCc2c[nH]nc21)C(=O)NS(=O)(=O)C1CC1 (stereo partly shown) | NS3/NS4A-2 (Hepatitis C virus genotype 1a, UniProt P27958) | 10 to 50 µM |
